- Test system: 266295-075-R-J1-PDC spheroid viability;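 note: spheroids exposed to compounds for seven days before readout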
- Assay Name: Anticancer human tumor 266295-075-R-J1-PDC patient-derived head and neck squamous carcinoma cell line growth inhibition [POLQ]
- Condition Label: second compound 0.1 µM; first compound 1 µM; hits give low values; spheroids with HUVEC and MSC
Examples of molecules with documented viability, T/C follow.
Supply the numeric figure in %, leaving out any unit text.

Below, 3 molecules whose answers are already recorded.
Molecule	viability, T/C / %
CCc1c2c(nc3ccc(O)cc13)-c1cc3c(c(=O)n1C2)COC(=O)[C@]3(O)CC + Cc1cccc(N(C)C(=O)C2C(O)CCN2c2nc(C)cc(C(F)(F)F)c2C#N)c1	72.9
CNCc1ccc(-c2[nH]c3cc(F)cc4c3c2CCNC4=O)cc1 + COC1C(OC(N)=O)C(O)C(Oc2ccc3c(O)c(NC(=O)c4ccc(O)c(CC=C(C)C)c4)c(=O)oc3c2C)OC1(C)C	86.9
COc1cc2cc(C(=O)CCC(=O)O)sc2cc1OC + COC1C(OC(N)=O)C(O)C(Oc2ccc3c(O)c(NC(=O)c4ccc(O)c(CC=C(C)C)c4)c(=O)oc3c2C)OC1(C)C	120

Query for 266295-075-R-J1-PDC spheroid viability: what viability, T/C does the record show for CC1COCCN1c1cc(C2(O)CC3CCC(C2)O3)c2cnn(-c3ccn[nH]3)c2n1 (stereo not given) + COC1C(OC(N)=O)C(O)C(Oc2ccc3c(O)c(NC(=O)c4ccc(O)c(CC=C(C)C)c4)c(=O)oc3c2C)OC1(C)C ?
51.5

Query for 266295-075-R-J1-PDC spheroid viability: what viability, T/C does the record show for COc1cc(C2c3cc4c(cc3C(OC3OC5COC(C)OC5C(O)C3O)C3COC(=O)C23)OCO4)cc(OC)c1O (stereo not given) + Nc1ccc(C#CCN(C(=O)Cc2ncc(C(F)(F)F)cc2C(F)(F)F)c2ccc(F)cc2)nn1 ?
97.4
